Biological target: SARS-CoV-2 main protease (M^pro) (Severe acute respiratory syndrome coronavirus 2, UniProt P0DTD1)
Test: Rapid-Fire MS Biochemical Assay measuring Mpro activity (5 nM Mpro)
Conditions: Table 1B, Mpro inhibition, 5 μM substrate peptide, 120 min, read-out: Rapid-Fire Assay IC50
pIC50: −log10 of the molar value.
Please respond with reported pIC50 for every item in the list.

Return reported pIC50; argument: N#Cc1ccc(C(F)(F)F)cc1N1C[C@@H](C#N)N(c2cncc3ccccc23)C1=O (single isomer, unassigned) [Compound 90b]
< 6.00

N#C[C@H]1CN([C@H]2CC[C@H](C(F)(F)F)CC2)C(=O)N1c1cncc2ccccc12 [Compound 128a] ?
> 7.70

N#C[C@H]1CN(c2ccc(Cl)cn2)C(=O)N1c1cncc2ccccc12 (single isomer, unassigned) [Compound 41a] ?
> 7.70
